readout: melting point
The answer should read as a number with its unit following.

Tell us which melting point value is on record for c1ccc(C2(c3ccccc3)CC2C2=NCCN2)cc1 (stereo not drawn)
104 °C

Could I get melting point for every one of these entries?
1. Cl.NCCc1c[nH]c2ccccc12
2. COC(=O)c1ccc(O)c(OC)c1

1: 255 °C; 2: 64 °C

State the recorded melting point for every item in the following list.
1. ClC=CBr
2. O=C(O)CCl

-86.7 °C
63 °C

---

So basically: melting point at 100 °C or higher? That is true (1). Lower than 100 °C? That is false (0).

Is melting point at least 100 °C? Consider CCB(O)O
false (0)

Evaluate NC[C@H]1O[C@H](O[C@H]2[C@H](O[C@@H]3O[C@H](CO)[C@@H](O)[C@H]3O)C(O)[C@H](N)C[C@@H]2N)[C@H](N)[C@@H](O)[C@@H]1O (stereo partly drawn) : melting point at minimum 100 °C?
true (1)

Quick check, melting point >= 100 °C? CC1CC1(C)C (stereo not drawn)
false (0)

Reported melting point at or above 100 °C? CCOC(=O)CCC(=O)OCC
false (0)

Turning now to a further record.
Is it the case that Cc1ccccc1C(N)=O has melting point reaching or exceeding 100 °C?
true (1)

---

readout: boiling point

Please look at this compound and report its boiling point: CCCCCCCCCCCCCCCCCCCCCCCCCC
412 °C

Fill in reported boiling point for this entry: O=S(=O)(O)C(F)(F)F
166 °C

Dear colleague, please send me the reported boiling point for Fc1cc(F)c(F)c(F)c1 when you can.
84.4 °C

Provide measured boiling point value, entry: C#CCCCC
71.3 °C

Using the record for CC(C)(C)NCCO , state its measured boiling point.
176 °C

Value sought for every listed compound: boiling point.
1. CC(C)C1CCCCC1
2. C=CCCC(C)(C)C
3. C[C@@H]1CC[C@H](C)c2ccccc21
4. N#Cc1ccc(Cl)cc1
5. CCCCCOC(=O)c1ccccc1O
6. ClC(Cl)(Cl)Cl

155 °C
104 °C
226 °C
223 °C
270 °C
76.8 °C

Please state, for each entry, its recorded boiling point.
1. C=C[Si](C)(C)OCC
2. CCOC(=O)C=C(C)C
3. COCCOCCOCCOCCOC
4. CC(C)c1cccc(C(C)C)c1N
5. CCCCCCCCCCC(C)=O
6. Cc1ccc(C(C)C)c(C)c1

["99 °C", "154 °C", "275 °C", "257 °C", "246 °C", "197 °C"]

---

If the reported melting point equals or exceeds 40 °C, assign y. If not, assign n.

// below: answered compounds
Please tell me: is the compound CC1(C)CC(C)(c2ccccc2)c2ccccc21 (stereo not given) at or over 40 °C in terms of melting point?
y

Check the entry CNP(=O)(NC)Oc1ccccc1 : does melting point equal or exceed 40 °C?
y

For this compound, is measured melting point 40 °C or higher? C=CCOC(=O)CC(C)=O
n

Does Nc1cc(N2CCCCC2)nc(N)[n+]1[O-] have a reported melting point of at least 40 °C?
y

Textbook exercise: given the entry COC(=O)c1ccccc1S(=O)(=O)NC(=O)Nc1nc(C)nc(OC)n1 , state whether its melting point is greater than or equal to 40 °C.
y

Does CCOC(=O)C(C)(C)C have a reported melting point of at least 40 °C?
n

Would you say Cc1cc(Cl)c(Cl)c(Cl)c1 shows melting point at minimum 40 °C?
y

Say whether COc1cc(OC)c(C(=O)O)cc1OC shows melting point of 40 °C or more.
y

Others:
Threshold query (melting point >= 40 °C) on C[C@H]1C[C@H]2[C@@H]3CCC4=CC(=O)C=C[C@]4(C)[C@@]3(F)[C@@H](O)C[C@]2(C)[C@@]1(O)C(=O)CCl
y

Decide: melting point of O=C(O)CCc1ccc(O)cc1 >= 40 °C?
y

Check the entry Ic1cccc2ccccc12 : does melting point equal or exceed 40 °C?
n

Does melting point meet or surpass 40 °C for CC1C2Cc3ccc(O)cc3C1(C)CCN2CC1CC1 (stereo not given) ?
y

Quick check: does CCc1oc2ccccc2c1C(=O)c1cc(Br)c(O)c(Br)c1 have melting point greater than or equal to 40 °C?
y

Would you say CC12CC1(C)C(=O)N(c1cc(Cl)cc(Cl)c1)C2=O (stereo not given) shows melting point at minimum 40 °C?
y

Reported melting point at or above 40 °C? Cc1ccc(Br)cc1Br
n

Please check the record NNC(N)=O and state if its melting point is at or above 40 °C.
y

Given the entry O=C1C[C@@H](c2ccc(O)cc2)Oc2cc(O)cc(O)c21 , answer whether its melting point meets or surpasses 40 °C.
y

Entry SC1=NCCCN1 : is its melting point no less than 40 °C?
y

Assess whether reported melting point for C[C@H](O)CC[C@H](C)O sits at 40 °C or higher.
y

Textbook exercise: given the entry CCOP(=S)(OCC)Oc1ccc(=O)n(-c2ccccc2)n1 , state whether its melting point is greater than or equal to 40 °C.
y

Could you verify whether the entry ClCCCCl shows melting point of no less than 40 °C?
n

Textbook exercise: given the entry O=[N+]([O-])c1ccc(F)cc1F , state whether its melting point is greater than or equal to 40 °C.
n

Is melting point at least 40 °C? Consider c1ccc(Cc2ccccc2)cc1
n

Determine whether this compound has melting point no lower than 40 °C: CCCCCCCCCCCCCCCCCCCC1CCCCC1
y

Could you tell me if the measured melting point of CCNc1nc(Cl)nc(NC(C)(C)C#N)n1 reaches 40 °C or more?
y

Would you say CCCCCCCCCCCCCCCCCC(=O)OCCC shows melting point at minimum 40 °C?
n

Does c1ccc(C2=NNCC2)cc1 have a reported melting point of at least 40 °C?
y

Has O=C(OCCOCCOC(=O)c1ccccc1)c1ccccc1 a recorded melting point greater than or equal to 40 °C?
n

# bool: melting point of ClCC(Cl)(Cl)C(Cl)(Cl)Cl >= 40 °C
n

Please tell me: is the compound O=C(O)c1ccccc1-c1ccc(C(F)(F)F)cc1 at or over 40 °C in terms of melting point?
y

These entries and their values trace back to the OPERA property sets (Mansouri et al. 2018).
